- Test system: FLC-resistant Candida auris
- assay-protocol: Checkerboard (dose-response matrix) with fluconazole, FICI
- Type: cell-based
- condition-label: fractional inhibitory concentration index for enhancement of FLC activity in FLC-resistant Candida auris; <0.5 strong synergy, 2 = no synergy

# smiles-string, subject-of-test, FICI
records = [
    ("CC[C@@H](O)COc1cc2c(cc1C1(c3cc4c(cc3OC[C@H](O)CC)OCO4)C(=O)Nc3c(F)cccc31)OCO2", "FLC-resistant Candida auris", 0.500),
    ("CC(C)(C)C[C@@H](O)COc1cc2c(cc1C1(c3cc4c(cc3OC[C@H](O)CC(C)(C)C)OCO4)C(=O)Nc3ccc(F)cc31)OCO2", "FLC-resistant Candida auris", 0.068),
    ("CC(C)(C)C[C@@H](O)COc1cc2c(cc1C1(c3cc4c(cc3OC[C@H](O)CC(C)(C)C)OCO4)C(=O)Nc3cc(F)ccc31)OCO2", "FLC-resistant Candida auris", 0.068),
    ("C=CCC[C@@H](O)COc1cc2c(cc1C1(c3cc4c(cc3OC[C@H](O)CCC=C)OCO4)C(=O)Nc3cc(Br)ccc31)OCO2", "FLC-resistant Candida auris", 0.266),
    ("CCC[C@@H](O)COc1cc2c(cc1C1(c3cc4c(cc3OC[C@H](O)CCC)OCO4)C(=O)Nc3c(F)cccc31)OCO2", "FLC-resistant Candida auris", 0.058),
    ("C=CC[C@@H](O)COc1cc2c(cc1C1(c3cc4c(cc3OC[C@H](O)CC=C)OCO4)C(=O)Nc3cc(F)ccc31)OCO2", "FLC-resistant Candida auris", 0.130),
]

====

Recorded FICI by entry
- Test system: FLC-resistant Candida auris
- assay-protocol: Checkerboard (dose-response matrix) with fluconazole, FICI
- Format: cell-based
- condition-label: fractional inhibitory concentration index for enhancement of FLC activity in FLC-resistant Candida auris; <0.5 strong synergy, 2 = no synergy
endpoint-label: FICI

# compound, subject-of-test, recorded-value
rows = [
    ("O=C1Nc2ccccc2C1(c1ccc(O)cc1)c1ccc(O)cc1 [Oxyphenisatin, oxyphenisatin, reference compound]", "FLC-resistant Candida auris", 2),
    ("CC[C@@H](O)COc1cc2c(cc1C1(c3cc4c(cc3OC[C@H](O)CC)OCO4)C(=O)Nc3cc(F)ccc31)OCO2", "FLC-resistant Candida auris", 0.266),
    ("CC(C)C[C@@H](O)COc1cc2c(cc1C1(c3cc4c(cc3OC[C@H](O)CC(C)C)OCO4)C(=O)Nc3ccc(F)cc31)OCO2", "FLC-resistant Candida auris", 0.130),
    ("CC(C)(C)C[C@@H](O)COc1cc2c(cc1C1(c3cc4c(cc3OC[C@H](O)CC(C)(C)C)OCO4)C(=O)Nc3ccc(Br)cc31)OCO2", "FLC-resistant Candida auris", 0.175),
    ("CC(C)(C)C[C@@H](O)COc1cc2c(cc1C1(c3cc4c(cc3OC[C@H](O)CC(C)(C)C)OCO4)C(=O)Nc3cc(Br)ccc31)OCO2", "FLC-resistant Candida auris", 0.068),
    ("CCC[C@@H](O)COc1cc2c(cc1C1(c3cc4c(cc3OC[C@H](O)CCC)OCO4)C(=O)Nc3cc(F)ccc31)OCO2", "FLC-resistant Candida auris", 0.130),
]

====

- Tested on: FLC-resistant Candida auris
- assay-protocol: Checkerboard (dose-response matrix) with fluconazole, FICI
- Type: cell-based
- condition-label: fractional inhibitory concentration index for enhancement of FLC activity in FLC-resistant Candida auris; <0.5 strong synergy, 2 = no synergy

# smiles-string, FICI
rows = [
    ("CC(C)C[C@@H](O)COc1cc2c(cc1C1(c3cc4c(cc3OC[C@H](O)CC(C)C)OCO4)C(=O)Nc3cc(Br)ccc31)OCO2", 0.130),
    ("CCC[C@@H](O)COc1cc2c(cc1C1(c3cc4c(cc3OC[C@H](O)CCC)OCO4)C(=O)Nc3ccc(F)cc31)OCO2", 0.255),
    ("CC(C)C[C@@H](O)COc1cc2c(cc1C1(c3cc4c(cc3OC[C@H](O)CC(C)C)OCO4)C(=O)Nc3ccc(Br)cc31)OCO2", 0.300),
    ("C=CCC[C@@H](O)COc1cc2c(cc1C1(c3cc4c(cc3OC[C@H](O)CCC=C)OCO4)C(=O)Nc3c(F)cccc31)OCO2", 0.113),
    ("C=C(C)C[C@@H](O)COc1cc2c(cc1C1(c3cc4c(cc3OC[C@H](O)CC(=C)C)OCO4)C(=O)Nc3cc(F)ccc31)OCO2", 0.130),
    ("CC(C)C[C@@H](O)COc1cc2c(cc1C1(c3cc4c(cc3OC[C@H](O)CC(C)C)OCCO4)C(=O)Nc3cc(F)ccc31)OCCO2", 0.255),
]

====

Recorded FICI by entry
- Test system: FLC-resistant Candida auris
- assay-protocol: Checkerboard (dose-response matrix) with fluconazole, FICI
- Type: cell-based
- condition-label: fractional inhibitory concentration index for enhancement of FLC activity in FLC-resistant Candida auris; <0.5 strong synergy, 2 = no synergy
- Experimental: Generally, the synergy is measured by determining the fractional inhibitory concentration (FIC) value of the combination. […] FIC values for both agents in a particular square/well are calculated in this way followed by determination of the FIC index (sum of the FICs of each agent in the particular square/well). […]
endpoint-label: FICI

# molecule, endpoint-label, recorded-value
records = [
    ("C=CCC[C@@H](O)COc1cc2c(cc1C1(c3cc4c(cc3OC[C@H](O)CCC=C)OCO4)C(=O)Nc3ccc(F)cc31)OCO2", "FICI", 0.266),
    ("C=C(C)C[C@@H](O)COc1cc2c(cc1C1(c3cc4c(cc3OCC)OCO4)C(=O)Nc3cc(F)ccc31)OCO2 (stereo partly drawn) [RT-162S-015]", "FICI", 0.133),
    ("C=CCC[C@@H](O)COc1cc2c(cc1C1(c3cc4c(cc3OC[C@H](O)CCC=C)OCO4)C(=O)Nc3cc(F)ccc31)OCO2", "FICI", 0.130),
    ("CC(C)(C)C[C@@H](O)COc1cc2c(cc1C1(c3cc4c(cc3OC[C@H](O)CC(C)(C)C)OCO4)C(=O)Nc3c(F)cccc31)OCO2", "FICI", 0.068),
    ("CC(C)C[C@@H](O)COc1cc2c(cc1C1(c3cc4c(cc3OC[C@H](O)CC(C)C)OCCO4)C(=O)Nc3c(F)cccc31)OCCO2", "FICI", 0.255),
    ("CC(C)C[C@@H](O)COc1cc2c(cc1C1(c3cc4c(cc3OC[C@H](O)CC(C)C)OCO4)C(=O)Nc3cc(F)ccc31)OCO2", "FICI", 0.130),
    ("C=C(C)C[C@@H](O)COc1cc2c(cc1C1(c3cc4c(cc3OC[C@H](O)CC(=C)C)OCO4)C(=O)Nc3c(F)cccc31)OCO2", "FICI", 0.175),
]

====

- Test system: FLC-resistant Candida auris
- assay-protocol: Checkerboard (dose-response matrix) with fluconazole, FICI
- Format: cell-based
- condition-label: fractional inhibitory concentration index for enhancement of FLC activity in FLC-resistant Candida auris; <0.5 strong synergy, 2 = no synergy
Recorded FICI by entry

# molecule, FICI
measured = [
    ("CCC[C@@H](O)COc1cc2c(cc1C1(c3cc4c(cc3OCC)OCO4)C(=O)Nc3c(F)cccc31)OCO2 (stereo partly shown)", 0.113),
    ("CC(C)C[C@@H](O)COc1cc2c(cc1C1(c3cc4c(cc3OC[C@H](O)CC(C)C)OCO4)C(=O)Nc3c(F)cccc31)OCO2", 0.036),
    ("C=CCC[C@@H](O)COc1cc2c(cc1C1(c3cc4c(cc3OC[C@H](O)CCC=C)OCO4)C(=O)Nc3cccc(Br)c31)OCO2", 0.257),
    ("C=CC[C@@H](O)COc1cc2c(cc1C1(c3cc4c(cc3OC[C@H](O)CC=C)OCO4)C(=O)Nc3c(F)cccc31)OCO2", 0.113),
]

Where do these numbers come from? They come from patent US11773086B2.
